The measurements presented in this section are drawn from PubChem BioAssay.

Experiment: thallium flux activation in parental CHO cells, counter-screen for KCNQ1 potentiator project (AID 493006);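 as to activation: fluorescence ratio of max minus min over baseline after K+ and Tl+ depolarization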
Conditions: parental CHO-K1 cells, FluxOR thallium flux, at 10 µM
Active and inactive are the calls of the source.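 The calls were made as follows: active = duplicate-averaged activation above buffer control mean plus 5 SD of those controls; inactive = the rest.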
Possible outcomes: active, inactive

| COMPOUND | CATEGORY |
| --- | --- |
| CCC(C)c1ccccc1OCCCNC1CCCC1 (stereo not drawn) | inactive |
| O=C(N1CCCCC1)N1CCN(C(=O)N2CCCCC2)CC1 | inactive |
| COc1ccc(NC(=O)/C(=C/c2ccc(OC(C)=O)c(OC)c2)NC(C)=O)cc1 | inactive |
| O=c1cc(-c2c(F)c(F)c(F)c(F)c2F)oc2ccccc12 | inactive |
| N#Cc1ccc(-c2nc3cc(Cl)ccc3c(=O)n2O)cc1 | active |
| Cn1cnc([N+](=O)[O-])c1S(=O)(=O)c1cccc(Cl)c1 | inactive |
| Cc1cc(C(=O)CSc2nnc(N)s2)c(C)n1C1CC1 | inactive |
| Cc1nc2ccccn2c1C(=O)N/N=C/c1ccccc1 | inactive |
| CCc1ccc(-c2ccc3nnc(SC)n3n2)cc1 | inactive |
| O=C(COc1ccccc1Cl)NC(=S)N1CCc2ccccc21 | inactive |
| C/C(=N\Nc1nc2ccccc2[nH]1)c1ccc(Cl)s1 | inactive |
| Cc1ccc(S(=O)(=O)N2CCN(C(=O)CCC(=O)OCC(=O)Nc3cccc(C#N)c3)CC2)cc1 | inactive |
| Cc1ccc(-c2c(C)n([O-])c3c([n+]2=O)CCCC3)o1 | inactive |
| CN(C)CCCNc1cc(-c2ccccc2)nc2cc(-c3cccc(F)c3)nn12 | active |
| Cc1ccc(-n2ncc3c(SCC(=O)NNC(=O)c4ccco4)ncnc32)cc1 | inactive |
| Nc1nc(NCc2ccco2)nc(NC2CCCCC2)c1[N+](=O)[O-] | inactive |
| O=C(C1CCCCC1)N(CCN1CCCC1)c1nc2ccccc2s1 | inactive |
| OCCN1CCN(c2nc(-c3ccccc3)nc3c2oc2ccccc23)CC1 | inactive |
| Cn1ncc([N+](=O)[O-])c1C(=O)N/N=C/c1ccc(F)cc1 | inactive |
| CCCn1c(N)c(C(=O)CSc2nc(C)nc3sc(C)c(C)c23)c(=O)[nH]c1=O | active |
| Cc1cc(OC(=O)c2cc(Cl)ccc2Cl)c([N+](=O)[O-])c(=O)[nH]1 | inactive |
| CCC(CC)C1=NN2C(=N)/C(=C\c3cc(C)n(-c4cccc(C)c4)c3C)C(=O)N=C2S1 | inactive |
| Cc1ccc(-c2noc(CNS(=O)(=O)c3ccccc3)n2)cc1 | inactive |

----------
Target: Potassium voltage-gated channel subfamily KQT member 1 (Homo sapiens)
Assay: KCNQ1 potassium channel potentiators, confirmation, FluxOR thallium flux, CHO cells, duplicates (AID 493007);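 as to potentiation: 0% = buffer-only wells and 100% = R-L3 activator control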
Settings: KCNQ1 cell line, FluxOR thallium flux fluorescence, at 10 µM; hits give high values, % of reference activator effect, buffer zero
The source made the active and inactive calls.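 How the source made its calls: active means potentiation averaged over duplicate wells exceeding buffer-only control mean by more than 3 SD; inactive means the rest.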
PARAMETER_MEASURED: potentiation

| COMPOUND | TGT | PARAMETER_MEASURED | RECORDED_MEASUREMENT |
| --- | --- | --- | --- |
| CCN(CC)CCCNC(=O)c1[nH]c2ccccc2c1Sc1ccc(Cl)cc1 | Potassium voltage-gated channel subfamily KQT member 1 (Homo sapiens) | potentiation | 73% (active) |
| Cc1c(Cl)cccc1NC(=O)Cn1c(CCC(=O)O)ccc1-c1ccccc1 | Potassium voltage-gated channel subfamily KQT member 1 (Homo sapiens) | potentiation | inactive |
| CCc1cc(C(=O)N2CCN(c3ccccn3)CC2)sc1C | Potassium voltage-gated channel subfamily KQT member 1 (Homo sapiens) | potentiation | inactive |
| COC(=O)C1CCCN1C(=O)COc1ccc(Br)cc1Cl (stereo unspecified) | Potassium voltage-gated channel subfamily KQT member 1 (Homo sapiens) | potentiation | 48.5% (active) |
| C/C(N)=C(/C#N)C(=O)COc1ncnc2ccc(Br)cc12 | Potassium voltage-gated channel subfamily KQT member 1 (Homo sapiens) | potentiation | inactive |
| CCOc1ccc(/C=C2/SC(=O)NC2=S)cc1 | Potassium voltage-gated channel subfamily KQT member 1 (Homo sapiens) | potentiation | 138% (active) |
